Readings of %Inh for the listed compounds
# Tested on: LYN;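 also: KINOMEscan kinase panel screen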
# condition-notes: concentration: 1 μM,replicates: in singlicate; n = 1
Give the number; % is assumed, so skip it.

>>> measured_value("CNC(=O)c1ccccc1Sc1ccc2c(/C=C/c3ccccn3)n[nH]c2c1")
9
>>> measured_value("CCN(CC)CCOc1ccc(Nc2ncc3cc(-c4c(Cl)cccc4Cl)c(=O)n(C)c3n2)cc1")
99.9
>>> measured_value("Cl.Cl.NC[C@H](Cc1ccc(C(F)(F)F)cc1)NC(=O)c1cc(Br)c(-c2ccnc3[nH]ccc23)s1")
0

Give its %Inh value. Item: O=C(NCCCN1CCOC1=O)c1cnc(NCc2cc(Cl)ccc2Cl)nc1NC1CCCC1
18
